# TEST: soluble on expression in E. coli; label from the status in PepcDB or PDB records
MEASUREMENT KIND: soluble on expression in E. coli

## Task Requested read-out: soluble on expression in E. coli. Entry: MQASDRFNINSQLEHLQAKYVGTGHADLSRFEWAVNIQRDSYASYIGHYPMLSYFAIAENESIGRERYNFMQKMLLPCGLPPEREEE
## Result soluble

## Task Requested read-out: soluble on expression in E. coli. Entry: LDTTRESIRIGDNLGNVINDPISSREIETQNERDNDLINRYYRPDELEKVKVVDFKPIILNLDELDNDELIMALEEKPAYSRTGVLLSRIDNIRMRIAESAGRLKKDVVRSEESERPAFESERSSSPTTISFN
## Result not soluble

## Task Requested read-out: soluble on expression in E. coli. Entry: AHHHHHHGSVIEEEGKVEILPRDVDLSKYVDSVEVDVDNFGDYHELRKELREKKMRFIDANVFIYAILKPKRELNEKELKIKRVSKEIFNRINGGEEVVTTVVHLSEVANVLEDAANLSFAISFLKDVLIKGNVIVEEVSDRDYMESVLLAEEKGVSINDALAYILMKRKGIEEIYTFDRHFENLDVRIVNS
## Result soluble

## Task Requested read-out: soluble on expression in E. coli. Entry: MPSFDIVSEITLHEVRNAVENANRVLSTRYDFRGVEAVIELNEKNETIKITTESDFQLEQLIEILIGSCIKRGIEHSSLDIPAESEHHGKLYSKEIKLKQGIETEMAKKITKLVKDSKIKVQTQIQGEQVRVTGKSRDDLQAVIQLVKSAELGQPFQFNNFRD
## Result soluble

## Task Requested read-out: soluble on expression in E. coli. Entry: GPPGPPGPPGPPGPRGRTGPPGPPGPPGPP
## Result soluble

More entries:
## Task Requested read-out: soluble on expression in E. coli. Entry: MGSDKIHHHHHHMKILLYLEAEQFLSHSGIGRAMKHQQRALDLMGIDWTKNPEDDYDILHLNTYGFSSWKMLKKAKKAGKKVIFHGHSTKEDFQNSFIGSNIAAPFFKQYLMHFYRAADLVITPTDYSASLLRSYGIKCPILPISNGIDLTKYSRSEAKEQAFREYFSLKSDQKVVVTAALYFKRKGIDDFIKVAERMPDVTFIWFGYQNLWTIPGWIRRIVKKNHPKNVLFPGYIKGDIFEGAMSSADAFFFPSREETEGIVVLEALASHQKTVVRDIPVYHGWLDSTCVSMATDVEGFVNQLQDVLDGKVDKTKEAYQVAESRTIEKVAQQLADAYQQTLEL
## Result not soluble

## Task Requested read-out: soluble on expression in E. coli. Entry: MDAKVYVGGLPSDATSQELEEIFDRFGRIRKVWVARRPPGFAFVEYDDVRDAEDAVRALDGSRICGVRARVELSTGQRRGGGGRGGGFGGRGGGGRDRSPYRGDRGRSRSRSRDRGRDRSRDRSRDRSRDRSRDRSRERSRERERTRSRSRSPQERDRSHSKSRSRSRSRSRSRSASPH
## Result soluble

## Task Requested read-out: soluble on expression in E. coli. Entry: MPPPSPLHLDPIEEAHRQWTKHGWGDVADGMAAVTSVMRAQQIMMARVEEVLKPSGLTFARYELLTLLTFTRTGALPMAKASARLQVHPTSVTNAVDRLETANLVRRVPHPSDRRATLIEITDAGRKLAVESTERLNAQVFSRPGVSGDKLEQLVTILAELRREAGDFDTGDAPTKW
## Result not soluble
